system: Escherichia coli; assay: Covalent binding to Escherichia coli pBR322 DNA Guanine-guanine site assessed as inhibition of BamH1-mediated restriction digestion at 1250 uM by restriction endonuclease analysis
Active and inactive are the calls of the source. The calls are words filed in the database; no cut-off is given here.
Select the correct class. Options are active, inactive and nothing else.

# smiles.representation, discrete.label
records = [
    ("c1nc(Nc2nnn[nH]2)c2ncn(CC3CCC3)c2n1", "inactive"),
]

IN: // param item: `CCOC(=O)Cn1cnc2c(Nc3nnn[nH]3)ncnc21` ; yields the recorded call
OUT: inactive

IN: Again, but for `c1ccc(Cn2cnc3c(Nc4nnn[nH]4)ncnc32)cc1`
OUT: inactive

IN: Again, but for `CCn1cnc2c(Nc3nnn[nH]3)ncnc21`
OUT: inactive

IN: Again, but for `Cn1cnc2c(Nc3nnn[nH]3)ncnc21`
OUT: inactive

IN: Again, but for `CCn1cnc2c(Sc3nnnn3C)ncnc21`
OUT: active
